B1: VH:VL chains; a variant is named by its letters at X, in order (parent)
chain 1: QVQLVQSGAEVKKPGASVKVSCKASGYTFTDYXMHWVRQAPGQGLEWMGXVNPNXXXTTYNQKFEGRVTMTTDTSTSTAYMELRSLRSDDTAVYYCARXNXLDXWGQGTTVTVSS
chain 2: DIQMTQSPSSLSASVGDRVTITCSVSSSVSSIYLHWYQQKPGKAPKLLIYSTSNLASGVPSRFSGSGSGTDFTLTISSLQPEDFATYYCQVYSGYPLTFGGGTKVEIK

- Variants of: B1
- experiment: yeast display scFab, FACS + sequencing

variant.identifier	non-specific binding call
YATAADWD	no binding
YRAGASGA	binds
YRGGSDVA	no binding
VTGTGDGA	no binding
VRGKGSGA	binds
YGARNAAV	binds
DRGRDDVD	no binding
VKGRADVD	no binding
YAAETDVF	no binding
DTTKSSSS	no binding
YRAKGVGA	binds
VRARGDGY	no binding
YEKETAGV	binds
DREEGAVY	no binding
VRTEDALD	no binding
YRAGSSGA	binds
DRGGDDWY	no binding
YAGKDDWV	no binding
SKAGGALD	binds
YRGKGAAF	binds
SRGRGAWY	binds
YKGRGASV	binds
FRGGGSLD	binds
SRGRGFAA	binds
DARGGSLS	no binding
VEAGDDVV	no binding
YATTSFSF	no binding
DAGTGSGA	no binding
YRKKSVGA	binds
FGAKGSSS	binds
DARGGSLD	no binding
DTERDDAV	no binding
YAGEGFGV	no binding
VKRGSSVD	binds
YTEEGDWV	no binding
VRTRASVD	binds
DEEASSWA	no binding
FRRGGSGS	binds
YTTRDDSD	no binding
YTTGSASF	no binding
AAGGNAWS chain 1 G66S	no binding
YKRGSSGD	binds
YTRGNAWA	binds
YRRRGSWA	binds
VRRGSSAS	binds
VERGTYGV	no binding
YKGGSSAD	binds
DRAGDSGF	no binding
YRTKGSGV	binds
DKKEDSAD	no binding
YERRSSAF	no binding
YARADDGD	no binding
YRGRTAAV	binds
DAKEGDAD	no binding
VRGTGSGA	binds
DRAGDAGV	no binding
SAGRSDLV chain 1 R67H	no binding
YKGRGAGF	binds
ATKGAAVA	no binding
VRRRGALD	binds
YRAGTAVS	binds
DRAGDYLV	no binding
DAARGAGD	no binding
VRAGDDSD	no binding
DKAGGAGV	no binding
DATGGSVD	no binding
